Measured values drawn from patent US3982931A for this set.

Tested on: phaseolus vulgaris (bean)
run_description: activity on agrarian species, soil treatment one day after sowing
Type: in vivo, Phaseolus vulgaris L.
test_settings: in vivo
outcome_measure: activity on I, 0-4 scale

compound	readout_value
CCC(C)N(C(=O)c1ccc(Cl)c(Cl)c1Cl)C(C)CC (stereo not shown)	0

A = CCCCN(C(=O)c1ccc(Cl)c(Cl)c1)C(C)CC (stereo not shown)
B = CCN(CC)C(=O)c1ccc(Cl)c(Cl)c1 [PA61, 3,4-dichloro-N,N-diethyl-benzamide, reference compound]
# input Sorting by activity on I, 0-4 scale in descending order, would A or B appear first? Which one? Tell me its label.
# output B

====

System: phaseolus vulgaris (bean)
run_description: activity on agrarian species, soil treatment one day after sowing
Assay type: in vivo, Phaseolus vulgaris L.
test_settings: 6 kg/ha
outcome_measure: activity on I, 0-4 scale
The answer should be written as a number, with no unit following it.

Reference set (3 entries):
compound	activity on I, 0-4 scale
CCC(C)N(C(=O)c1cc(Cl)cc(Cl)c1)C(C)CC (stereo not shown) [PA234, 3,5-dichloro-N,N-di-sec.butyl-benzamide]	0
CCC(C)N(C(=O)c1cc(Cl)cc(Cl)c1Cl)C(C)CC (stereo not shown) [PA300]	0
CCC(C)N(C(=O)c1ccc(Cl)c(Br)c1)C(C)CC (stereo not shown) [PA489]	0

Shift focus to the following entry.
# input Return reported activity on I, 0-4 scale; argument: CCC(C)N(C(=O)c1ccc(Cl)c(Cl)c1)C(C)CC (stereo not shown) [PA106, 3,4-dichloro-N,N-di-sec.butyl-benzamide]
# output 0

====

System: setaria glauca L.
run_description: herbicidal activity, soil treatment one day after sowing
Assay type: in vivo
test_settings: 3 kg/ha
Items are presented alongside their recorded activity on E, 0-4 scale.
Give your answer as a number; write no unit.

Below are worked cases with known answers.
compound	readout_value
CC(C)N(C(=O)c1cc(Cl)cc(Cl)c1Cl)C(C)C [PA302, reference compound]	4
CCC(C)N(C(=O)c1cc(Cl)ccc1Br)C(C)CC (stereo not shown)	3
CCCCN(CCCC)C(=O)c1ccc(Cl)c(Cl)c1 [PA105, 3,4-dichloro-N,N-di-n.butyl-benzamide, reference compound]	1

# input Find the recorded activity on E, 0-4 scale belonging to CCC(C)N(C(=O)c1cc(Cl)ccc1Cl)C(C)CC (stereo not shown) [PA412, 2,5-dichloro-N,N-di-sec.butyl-benzamide] and report it.
# output 4

====

System: setaria glauca L.
run_description: herbicidal activity, soil treatment one day after sowing
Format: in vivo
test_settings: 6 kg/ha
outcome_measure: activity on E, 0-4 scale
Output: the number by itself.

Take a look at these entries with their results.
compound	readout_value
CCCN(CCC)C(=O)c1cc(Cl)cc(Cl)c1Cl [PA303, reference compound]	4
O=C(O)c1cc(Cl)cc(Cl)c1Cl [PA304, 2,3,5-trichloro-benzoic acid, reference compound]	0

# next compound below
# input Give its activity on E, 0-4 scale value. Item: O=C(O)c1cc(Cl)cc(Cl)c1 [PA440, 3,5-dichloro-benzoic acid, reference compound]
# output 0

====

System: setaria glauca L.
run_description: herbicidal activity, soil treatment one day after sowing
Format: in vivo
test_settings: 6 kg/ha
Reported activity on E, 0-4 scale by item:
Please give only the number in your answer, with no unit.

Here's what some known entries look like.
compound	readout_value
CCN(CC)C(=O)c1ccc(Cl)cc1Cl [PA283, 2,4-dichloro-N,N-diethyl-benzamide, reference compound]	1
CCC(C)N(C(=O)c1ccc(Cl)c(Cl)c1)C(C)CC (stereo not shown) [PA106, 3,4-dichloro-N,N-di-sec.butyl-benzamide]	4
CCN(CC)C(=O)c1cccc(Cl)c1 [PA321, 3,chloro-N,N-diethyl-benzamide, reference compound]	1

# input # get_value(readout='activity on E, 0-4 scale', item= O=C(O)c1ccc(Cl)c(Cl)c1 [3,4-dichloro-benzoic acid, reference compound] )
# output 0
